Numbers sourced from PubChem BioAssay AID238.

Tested on: CAF1 mice, leiomyosarcoma No.2 ip, survival T/C%
Assay: NCI In Vivo Anticancer Drug Screen. Data for tumor model Leiomyosarcoma (No. 2) (intraperitoneal) in CAF1 mice
Conditions: endpoint: mean survival time; dose: 200.0 mg/kg/injection; schedule: Q01DX010 (ip); vehicle: saline
Inconclusive results and toxic doses are left out. The calls were made as follows: active = survival T/C of 150% or more; inactive = T/C below 125% in these data.
Pick from active, inactive when you respond.

Hi, do you know how C#CCN(C)Cc1ccccc1 came out in this test?
inactive

Hi, do you know how CN(C)/N=N/c1nc[nH]c1C(N)=O came out in this test?
active

Hi, do you know how CS(=O)(=O)OCC(O)C(O)C(O)C(O)COS(C)(=O)=O (centres undefined) came out in this test?
inactive

Hi, do you know how CSc1ncnc2nc[nH]c12 came out in this test?
inactive
